SYSTEM_UNDER_TEST: Glutamate [NMDA] receptor
PROCEDURE_DETAILS: Displacement of [3H]MDL from NMDA receptor (unknown origin)
Assay type: protein-complex assay, Homo sapiens
Readings of IC50 for the listed compounds

>  <ENTRY_SMILES>
O=C(Cc1ccsc1)NCc1cc(Br)cc2nc(O)c(O)nc12

>  <SYSTEM_UNDER_TEST>
Glutamate [NMDA] receptor

>  <IC50 (µM)>
0.01

$$$$
>  <ENTRY_SMILES>
O=C(NCc1cc(Br)cc2[nH]c(=O)c(=O)[nH]c12)c1ccsc1

>  <SYSTEM_UNDER_TEST>
Glutamate [NMDA] receptor

>  <IC50 (µM)>
0.01

$$$$
>  <ENTRY_SMILES>
O=C(NCc1cc(Br)cc2nc(O)c(O)nc12)c1cccs1

>  <SYSTEM_UNDER_TEST>
Glutamate [NMDA] receptor

>  <IC50 (µM)>
0.01

$$$$
